Assay Info: Inhibition of beta-lactamase NDM1 (unknown origin) expressed in Escherichia coli BL21(DE3) using cefotaxime/nitrocefin as substrate by measuring substrate hydrolysis at 100 uM by spectrophotometric analysis
Activity calls are given as the source filed them. The rule behind the calls is not given here.
Result Type: inhibition

O=C(O)c1ccccc1/C=N/n1c(CCc2ccccc2)n[nH]c1=S :: inactive
Cc1ccccc1-c1n[nH]c(=S)n1/N=C/c1ccccc1 :: 32%
Oc1ccc(/C=N/n2c(COc3ccc4ccccc4c3)n[nH]c2=S)c(O)c1 :: inactive
O=C(O)c1ccccc1/C=N/n1c(-c2cccc(Br)c2)n[nH]c1=S :: inactive
S=c1[nH]nc(Cc2ccccc2)n1/N=C/c1ccc(OCc2ccccc2)cc1 :: inactive

## Task Bench note: what inhibition did Oc1ccc(/C=N/n2c(C(c3ccccc3)c3ccccc3)n[nH]c2=S)c(O)c1 show?
## Result inactive

## Task Now the molecule Cc1ccccc1-c1n[nH]c(=S)n1/N=C/c1ccc([N+](=O)[O-])cc1
## Result inactive

## Task Note, next up: Cc1ccccc1-c1n[nH]c(=S)n1/N=C/c1ccc(O)cc1
## Result inactive

## Task Consider next the molecule Oc1ccc(/C=N/n2c(-c3ccc(OCc4ccccc4)cc3)n[nH]c2=S)c(O)c1 in the same way.
## Result 42%

## Task Follow-up item: Cc1ccccc1-c1n[nH]c(=S)n1/N=C/c1cc(O)ccc1O
## Result 37%
